# Target Desc: influenza virus sialidase (N1) (Influenza A virus, UniProt Q9WAA1)
# Sequence (Q9WAA1 whole entry, looked up): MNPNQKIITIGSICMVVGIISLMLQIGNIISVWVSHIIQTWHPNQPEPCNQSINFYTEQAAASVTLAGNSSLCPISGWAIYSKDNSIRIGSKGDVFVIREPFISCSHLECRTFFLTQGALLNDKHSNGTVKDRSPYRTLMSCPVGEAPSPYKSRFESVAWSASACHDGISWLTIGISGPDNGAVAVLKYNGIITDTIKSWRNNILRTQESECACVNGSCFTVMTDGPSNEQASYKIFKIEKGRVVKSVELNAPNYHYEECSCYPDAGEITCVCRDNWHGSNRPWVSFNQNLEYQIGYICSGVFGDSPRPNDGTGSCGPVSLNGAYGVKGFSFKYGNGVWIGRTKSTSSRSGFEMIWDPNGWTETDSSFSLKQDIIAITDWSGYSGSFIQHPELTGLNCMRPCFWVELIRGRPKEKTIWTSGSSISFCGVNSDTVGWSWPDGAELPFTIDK
# Method Summary: biochemical
pKi: −log10 of the molar value. Counter-ions that a name gives are not always drawn.
Consider the following compounds and their measured pKi readings.
Measured Parameter: pKi

[[record]]
compound = "CCC(CC)OC1CC(C(=O)O)=CC(n2cc(C(O)CC)nn2)C1NC(C)=O (stereo not drawn)"
target_desc = "influenza virus sialidase (N1) (Influenza A virus, UniProt Q9WAA1)"
measured_parameter = "pKi"
recorded_measurement = 6.15

[[record]]
compound = "CCC(CC)OC1CC(C(=O)O)=CC(NC(=N)N)C1NC(C)=O (stereo not drawn) [Compound 39, Trifluoroacetate salt]"
target_desc = "influenza virus sialidase (N1) (Influenza A virus, UniProt Q9WAA1)"
measured_parameter = "pKi"
recorded_measurement = 8.32

[[record]]
compound = "CCC(CC)OC1CC(C(=O)O)=CC(n2cc(CCCO)nn2)C1NC(C)=O (stereo not drawn)"
target_desc = "influenza virus sialidase (N1) (Influenza A virus, UniProt Q9WAA1)"
measured_parameter = "pKi"
recorded_measurement = 5.30

[[record]]
compound = "CCC(CC)OC1CC(C(=O)O)=CC(N)C1NC(C)=O (stereo not drawn) [Compound 38, reference compound]"
target_desc = "influenza virus sialidase (N1) (Influenza A virus, UniProt Q9WAA1)"
measured_parameter = "pKi"
recorded_measurement = 7.70

[[record]]
compound = "CCC(CC)OC1CC(C(=O)O)=CC(n2cc(C(C)(C)O)nn2)C1NC(C)=O (stereo not drawn)"
target_desc = "influenza virus sialidase (N1) (Influenza A virus, UniProt Q9WAA1)"
measured_parameter = "pKi"
recorded_measurement = 5.70

[[record]]
compound = "CCC(CC)OC1CC(C(=O)O)=CC(n2cc(CCc3ccccc3)nn2)C1NC(C)=O (stereo not drawn)"
target_desc = "influenza virus sialidase (N1) (Influenza A virus, UniProt Q9WAA1)"
measured_parameter = "pKi"
recorded_measurement = 4.92


---

Observed IC50 values for UniProtKB Q9WAA1 are listed in what follows.
Measured Parameter: IC50 (µM)

[[record]]
molecule = "CCC(CC)OC1CC(C(=O)O)=CC(n2cc(C3(O)CCCC3)nn2)C1NC(C)=O (centres unmarked) [Compound 6]"
measured_parameter = "IC50"
recorded_measurement = 110

[[record]]
molecule = "CCC(CC)OC1CC(C(=O)O)=CC(n2cc(C3(O)CCCCC3)nn2)C1NC(C)=O (centres unmarked) [Compound 5]"
measured_parameter = "IC50"
recorded_measurement = 48

